molecular target: SARS-CoV Spike protein (SARS-CoV, UniProt P59594 14-1190)
# Lookup of reported bead binding signal (fold over isotype control) keyed by entry
Write no unit; give the number alone.

Use the examples below as a reference point.
1. antibody 444 (antibody, V domains shown) VH: QVQLVESGGGLVKPGGSLRLSCAASGFTFSDYYMSWIRQAPGKGLEWVSYISSSGSTIYYADSVKGRFTISRDNAKNSLYLQMNSLRAEDTAVYYCARERKVVVAATRNYYYYYGMDVWGQGTTVTVSS VL: SYELTQPPSVSVSPGQTARITCSGDALPKQYAYWYQQKPGQAPVLVIYKDSERPSGIPERFSGSSSGTTVTLTISGVQAEDEADYYCQSADSSTWVFGGGTKLTVL; 1
2. antibody 485 (antibody, V domains shown) VH: QVQLQESGPGLVKPSGTLSLTCAVSGASISSSNWWSWVRQPPGKGLEWIGEIYHSGSTNYNPSLKSRVTISVDKSKNQFSLKLSSVTAADTAVYYCARRSYYGSGSYYPFDYWGQGTLVTVSS VL: QSALTQPASVSGSPGQSITISCTGTSSDVGSYNLVSWYQQHPGKAPKLMIYEGRKRPSGVSNRFSGSKSGNTASLTISGLQAEDEADYYCCSYAGSSTYVFGTGTKVTVL; 1.12
3. antibody 434 (antibody, V domains shown) VH: QVQLVQSGAEVKKPGASVQVSCKASGYTFSDYYIFWVRQAPGQGLEWMGCINPKSGGAIYAQRFQGRVTMTRDTSFNTAYMEMNRLGSDDTAVYYCVTRGPPDIAASGFAWHLDVWGQGTTVTVSS VL: DIVMTQSPLSLPVTPGEPASISCRSSQSLLSSNGYNYLEWYLQKPGQSPQLLMYLGSNRASGVPDRFSGSGSGTDFTLKINRVEAEDVGVYYCMQALQTPLTFGGGTKVEIK; 1.36
4. antibody 452 (antibody, V domains shown) VH: QVQLVESGGGLVKPGGSLRLSCAASGFTFSDYYLSWIRQAPGKGLEWVSYISSSGSNIYYADSVKGRFTISRDNAKNSLYLQMNSLRADDTAVFYCARAGRYCSGGSCRVEYFQHWGQGTLVTVSS VL: SYELTQPPSVSVSPGQTARITCSGDALPKQYAYWYQQKPGQAPVLVIYKDNERPSGIPERFSGSSSGTTATLTISGVQAEDEADYYCQSADSSGTVVFGGGTKLTVL; 1.09
5. antibody 446 (antibody, V domains shown) VH: QVQLVESGGGVVQPGRSLRLSCAASGFTFSSYAMHWVRQAPGKGLEWVAVISYDGSNKYYADSVKGRFTISRDNSKNTLYLQMNSLRAEDTAVYYCARPNSGSYFGYFQHWGQGTLVTVSS VL: QSVLTQPPSVSGAPGQRVTISCTGSSSNIGAGYDVHWYQQLPGTAPKLLIYGNSNRPSGVPDRFSGSKSGTSASLAITGLQAEDEADYYCQSYDSSLSGFYVFGTGTKVTVL; 6.58

Challenge: Answer with the recorded bead binding signal (fold over isotype control) of antibody 476 (antibody, V domains shown) VH: QVQLVQSGSELKKPGASVKVSCKASGYTFTSYAMNWVRQAPGQGLEWMGWINTNTGNPTYAQGFTGRFVFSLDTSVSTAYLQISSLKAEDTGVYYCARDHELPNSSSWFGHFEYWGQGTLVTVSS VL: SYELTQPPSVSVSPGQTARITCSGDALPKQYAYWYQQKAGQAPVLVIYKDSERRSGIPERFSGSSSGTTVTLTISGVQAEDEADYYCQSADSSGTSVVFGGGTKLTVL only.
Response given: 1.04
